# Assay comment: yeast display, Sf9 membrane polyspecificity reagent, FACS + sequencing; frameworks hold sequencing errors
Experimental readout: polyreactivity (PSR sort gate)

Here is how some sequences turned out for polyreactivity (PSR sort gate).
Sequence chain: QVQLVESGGALVQAGGSLRLSCAASGRTFLGYGMGWYRQAPGKERVLVAAITSGGGSTYYADSVKGRFTISRDNAKNPVYLQMNSLKPEDTAVYYCSAKYYRAYCPHSRTRGYWGQGTQVTVSS
polyreactivity (PSR sort gate): high polyreactivity
//
Sequence chain: QVQLVESGGGLVQAGGSLRLICAASGFIFTYYGMGWYRQAPGKERELVAAITWSGASTYYADSVKGRFTISRDNAKNTVYLQMNSLKPEDTAVYYCNAGWDSGIVQSDETVYKYDYWGQGTQVTVSS
polyreactivity (PSR sort gate): low polyreactivity
//
Sequence chain: QVQLVESGGGLVQAGGSLRLSCAAYGITFYRNAMGWYRQAPGKEMELVAAITWNGGRTYYADSVKGRFTISRDNAKNTVYLQMNSLKPEDTAVYYCAADSGTLNLASYRYYYWGQGTQVTVSS
polyreactivity (PSR sort gate): low polyreactivity
//
Sequence chain: QVQLVESGGGLVQAGGSLRLSCAASGRIYKSYAMGWYRQAPGKERELVAAIRSGGSTYYADSVKGRFTISRDNAKNTVYLQMKSLKPEDTAVYYCAADRYSYGSNGYPRFEYYYWGQGTQVTVSS
polyreactivity (PSR sort gate): high polyreactivity

Switching to the query record.
What polyreactivity (PSR sort gate) value was documented for this sequence, `QVQLLESGGGLVQAGGSLRLSCAASGSTFDRNTMGWYRQAPGTVRELVAAITWSSGSTYYADSVKGRFTISRDNAKNTVYLQMNSLKPEDTAVYYCAADRIRYRSRHKYGYWVQGTQVTVSS` ? low polyreactivity
